System: HB3
experiment description: qHTS profiling for inhibitors of Plasmodium falciparum proliferation (AID 504749); note: nearly all actives have a fitted effect of over 60% in size
measurement context: P. falciparum in erythrocytes, SYBR Green DNA, 72 h; series mostly up to 28.7 µM
Results filed as inconclusive are left out. Calls of active or inactive are those of the source. Calls come from the whole dose curve; as a rule, active = well fitted inhibition curve with a large enough effect; inconclusive = small, poorly fitted or top-dose-only effect; inactive = flat fitted curve, though single readings scatter.
Give one outcome, nothing more. List: active, inactive

Problem: // return assay outcome for CO[C@@H]1[C@@H](OC2OC(C)C(OC3CC(C)(O)C(OC(=O)CC(C)C)C(C)O3)C(N(C)C)C2O)[C@@H](CC=O)C[C@@H](C)C(=O)/C=C\C2O[C@H]2C[C@@H](C)OC(=O)C[C@H]1OC(C)=O (stereo partly drawn)
Result: active

Problem: // return assay outcome for `CC1(C)S[C@@H]2[C@H](NC(=O)COc3ccccc3)C(=O)N2[C@H]1C(=O)O`
Result: inactive

Problem: // return assay outcome for CC(C)(CO)C(O)C(=O)NCCCC(=O)O (stereo not drawn)
Result: inactive

* * *

target system: Rap guanine nucleotide exchange factor 3 (Homo sapiens) (UniProt O95398)
Sequence (O95398 whole entry, looked up): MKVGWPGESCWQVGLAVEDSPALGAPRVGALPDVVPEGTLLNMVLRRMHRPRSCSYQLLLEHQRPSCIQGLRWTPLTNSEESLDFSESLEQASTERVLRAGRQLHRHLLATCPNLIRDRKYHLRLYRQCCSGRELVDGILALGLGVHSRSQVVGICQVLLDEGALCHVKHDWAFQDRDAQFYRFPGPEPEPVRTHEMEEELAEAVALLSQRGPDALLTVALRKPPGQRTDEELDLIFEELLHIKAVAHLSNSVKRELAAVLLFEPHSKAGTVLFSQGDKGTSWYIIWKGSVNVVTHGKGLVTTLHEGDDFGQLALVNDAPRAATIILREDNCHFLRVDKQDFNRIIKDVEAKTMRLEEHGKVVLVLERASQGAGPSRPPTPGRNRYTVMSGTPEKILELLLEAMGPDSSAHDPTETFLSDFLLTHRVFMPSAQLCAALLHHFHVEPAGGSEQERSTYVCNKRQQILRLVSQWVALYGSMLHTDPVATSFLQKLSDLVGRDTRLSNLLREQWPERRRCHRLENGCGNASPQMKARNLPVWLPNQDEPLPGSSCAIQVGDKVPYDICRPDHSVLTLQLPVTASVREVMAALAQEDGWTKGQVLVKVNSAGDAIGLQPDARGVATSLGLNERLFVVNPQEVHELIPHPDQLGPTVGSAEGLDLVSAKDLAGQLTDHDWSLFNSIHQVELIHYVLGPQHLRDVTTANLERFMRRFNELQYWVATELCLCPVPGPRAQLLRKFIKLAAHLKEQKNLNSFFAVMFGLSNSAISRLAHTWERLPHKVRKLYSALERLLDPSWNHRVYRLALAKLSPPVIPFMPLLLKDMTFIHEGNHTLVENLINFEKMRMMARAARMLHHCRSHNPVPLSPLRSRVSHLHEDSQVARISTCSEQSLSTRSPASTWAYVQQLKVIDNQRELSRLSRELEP
experiment description: Confirmatory qHTS for antagonist of cAMP-regulated guanine nucleotide exchange factor 3 (EPAC1) (AID 1645880); note: nearly all actives have a fitted effect of over 55% in size
measurement context: EPAC1 Rap1B-BODIPY-GDP exchange, fluorescence
Records with an inconclusive call do not appear. Activity calls are given as the source filed them. Calls come from the whole dose curve; as a rule, active = well fitted inhibition curve with a large enough effect; inconclusive = small, poorly fitted or top-dose-only effect; inactive = no such curve, though single readings can be large or run the other way.
Give one outcome, nothing more. List: y = active, n = inactive

>  <compound>
Cc1nc(-c2ccc(C(=O)Nc3cccc(Br)c3)cc2)cs1

>  <cat>
n

$$$$
>  <compound>
CCOc1ccc2oc(C(=O)N(C)CC(=O)Nc3ccc(OCC)c(OCC)c3)c(C)c2c1

>  <cat>
n

$$$$
>  <compound>
CCOC(=O)C1(O)Oc2cc(OC)cc(OC)c2C(=O)C1c1ccccc1 (configuration not stated)

>  <cat>
n

$$$$
>  <compound>
COc1ccc2nc3ccccc3nc2c1NC(=O)c1ccc(Cl)cc1Cl

>  <cat>
n

$$$$
>  <compound>
CCc1ccc(C(=O)c2cn(CC(=O)Nc3cccc(OC)c3)c3ccc(OC)cc3c2=O)cc1

>  <cat>
y

$$$$

Problem: // return assay outcome for `COc1ccc(-c2noc(CN(C(=O)c3c(-c4ccccc4Cl)noc3C)C(C)C)n2)cc1`
Result: n

Problem: // return assay outcome for `COc1ccc2c(Cl)c(C(=O)N/N=C3\CCCC(=O)C3)sc2c1`
Result: n

Problem: // return assay outcome for `Cc1cc2ccccn2c1C(=O)c1cccc(F)c1`
Result: n

Problem: // return assay outcome for `COC(=O)c1cc2ccsc2n1Cc1cccc(F)c1`
Result: n

Problem: // return assay outcome for COc1ccc2ccccc2c1C(O)c1nccn1C (configuration not stated)
Result: n

* * *

experiment description: Cell Viability - LYMP2-007 (AID 979);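 note: cells exposed to compound for 24 h before reading; nearly all actives have a fitted effect of over 60% in size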
measurement context: LYMP2-007 lymphoblastoid cell viability; series mostly up to 92.2 µM
Inconclusive results are not listed. Calls of active or inactive are those of the source. The call rests on the fitted dose curve; in most records, active means well fitted cell-killing curve with a large enough effect; inconclusive means small, poorly fitted or top-dose-only effect; inactive means flat fitted curve, though single readings scatter.
Give one outcome, nothing more. List: true (1) (active), false (0) (inactive)

>  <compound>
O=[N+]([O-])c1cccc(Cl)c1Cl

>  <cat>
false (0)

$$$$
>  <compound>
O=C(O)c1ccccc1C(c1ccc(O)cc1)c1ccc(O)cc1

>  <cat>
false (0)

$$$$
>  <compound>
Nc1ccc(Cl)cc1Cl

>  <cat>
false (0)

$$$$
>  <compound>
NC1=NC(S)C2N=CN=C2N1 (stereo not drawn)

>  <cat>
true (1)

$$$$
>  <compound>
CC1=CC(C)(C)Nc2ccccc21

>  <cat>
false (0)

$$$$
>  <compound>
CCCCCCCCO

>  <cat>
false (0)

$$$$
>  <compound>
COc1ccc(/C=C/c2cc(OC)cc(=O)o2)cc1

>  <cat>
false (0)

$$$$

Let us examine a further case.
Problem: // return assay outcome for `ClCCCl`
Result: false (0)

* * *

target system: Rap guanine nucleotide exchange factor 3 (Homo sapiens)
experiment description: Confirmatory qHTS for agonist of cAMP-regulated guanine nucleotide exchange factor 3 (EPAC1) (AID 1645881); note: nearly all actives have a fitted effect of over 75% in size; note: potency is the fitted concentration of half-maximal effect;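 for activation: EPAC1 catalysed release of BODIPY-GDP from Rap1B seen as fluorescence loss; 100% = effect of cAMP agonist control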
measurement context: EPAC1 Rap1B BODIPY-GDP exchange fluorescence; series mostly up to 154 µM
Results filed as inconclusive are left out. Active and inactive are the calls of the source. Calls come from the whole dose curve; as a rule, active = well fitted activation curve with a large enough effect; inconclusive = small, poorly fitted or top-dose-only effect; inactive = no such curve, though single readings can be large or run the other way.
metric name: Potency

>  <compound>
N#CC(C(=O)NCc1ccccc1)c1nc2ccccc2nc1N1CCCC1 (stereo unspecified)

>  <Potency>
100 µM (active)

$$$$
>  <compound>
CC1CN(c2nc3ccccc3cc2-c2ccccc2)CC(C)O1 (stereo unspecified)

>  <Potency>
inactive

$$$$
>  <compound>
Cc1cc(C)c2c(c1)OC(=O)CC2c1ccccc1C (stereo unspecified)

>  <Potency>
inactive

$$$$
>  <compound>
COc1cc2c(c(OC)c1OC)C(c1ccccc1C)CC(=O)O2 (stereo unspecified)

>  <Potency>
inactive

$$$$
>  <compound>
COc1ccc(NC(=S)N(CCCN2CCOCC2)C(C)c2cc3cccc(OC)c3o2)cc1 (stereo unspecified)

>  <Potency>
inactive

$$$$

Would you kindly look at the next entry?
Problem: Returns the measured Potency for the input compound. Input: `Cc1onc(-c2c(Cl)cccc2Cl)c1C(=O)c1ccc(F)cc1`
Result: inactive

* * *

target system: Rap guanine nucleotide exchange factor 4 (Homo sapiens)
experiment description: Confirmatory qHTS for antagonist of cAMP-regulated guanine nucleotide exchange factor 4 (EPAC2) (AID 1645885); note: nearly all actives have a fitted effect of over 25% in size
measurement context: EPAC2 Rap1B-BODIPY-GDP exchange fluorescence, biochemical; series mostly up to 12.7 µM
Records with an inconclusive call do not appear. Active and inactive are the calls of the source. Calls come from the whole dose curve; as a rule, active = well fitted inhibition curve with a large enough effect; inconclusive = small, poorly fitted or top-dose-only effect; inactive = no such curve, though single readings can be large or run the other way.
Give one outcome, nothing more. List: class 1 = active, class 0 = inactive

>  <compound>
O=C(c1ccco1)N(CCC(c1ccccc1)c1ccco1)Cc1ccccc1 (configuration not stated)

>  <target system>
Rap guanine nucleotide exchange factor 4 (Homo sapiens)

>  <cat>
class 0

$$$$
>  <compound>
Cc1nc2c(C(=O)NCc3ccc(F)cc3)c[nH]n2c(=O)c1Cl

>  <target system>
Rap guanine nucleotide exchange factor 4 (Homo sapiens)

>  <cat>
class 0

$$$$
>  <compound>
O=C(Nc1ccc(-c2cn3ccccc3n2)cc1)c1cccs1

>  <target system>
Rap guanine nucleotide exchange factor 4 (Homo sapiens)

>  <cat>
class 0

$$$$
>  <compound>
O=c1cc(CSc2nc3ccccc3c(=O)[nH]2)c2ccc(O)cc2o1

>  <target system>
Rap guanine nucleotide exchange factor 4 (Homo sapiens)

>  <cat>
class 0

$$$$
>  <compound>
O=C(Nc1cccc(F)c1)c1ccc(-c2cccnc2)c2ccoc12

>  <target system>
Rap guanine nucleotide exchange factor 4 (Homo sapiens)

>  <cat>
class 0

$$$$
>  <compound>
O=[N+]([O-])c1cc2c(cc1CN1CCN(CCOCCO)CC1)OCO2

>  <target system>
Rap guanine nucleotide exchange factor 4 (Homo sapiens)

>  <cat>
class 0

$$$$
>  <compound>
COC(=O)NCc1c(C)nn(-c2ccccc2)c1-n1cccc1

>  <target system>
Rap guanine nucleotide exchange factor 4 (Homo sapiens)

>  <cat>
class 0

$$$$
>  <compound>
Cc1ccc(NC(=O)CN2C(=O)S/C(=C\c3cccn3-c3cccc(C(=O)O)c3)C2=O)cc1C

>  <target system>
Rap guanine nucleotide exchange factor 4 (Homo sapiens)

>  <cat>
class 1

$$$$
>  <compound>
CC(C)CC1C(=O)N(Cc2cn(Cc3ccco3)nn2)CCS(=O)(=O)N1Cc1ccc(-c2ccc(F)cc2)cc1 (configuration not stated)

>  <target system>
Rap guanine nucleotide exchange factor 4 (Homo sapiens)

>  <cat>
class 1

$$$$
>  <compound>
O=C(N/N=C/c1ccc(O)c(O)c1)c1ccc(CSc2cccc3cccnc23)cc1

>  <target system>
Rap guanine nucleotide exchange factor 4 (Homo sapiens)

>  <cat>
class 0

$$$$

Problem: // return assay outcome for `Cc1ccc2nc(-c3ccc(NC(=O)CSc4nccc(=O)[nH]4)cc3)sc2c1`
Result: class 0

Problem: // return assay outcome for `CCOc1cc(/C=C/C(=O)OCC(=O)NCc2ccco2)cc(Cl)c1OC`
Result: class 0

Problem: // return assay outcome for CCOC(=O)C1=C(N)Oc2cc(O)ccc2C1c1ccccc1 (configuration not stated)
Result: class 0

Problem: // return assay outcome for `O=C(C=Cc1ccccc1)c1c[nH]c2ccccc2c1=O`
Result: class 0

Problem: // return assay outcome for COc1cccc2c1OC1(C)CC2/C(=C(\C)O)C(=O)N1 (configuration not stated)
Result: class 0

Problem: // return assay outcome for O=C(CSc1nc2ccsc2c(=O)n1CC1CCC(C(=O)O)CC1)c1ccc(Cl)cc1 (configuration not stated)
Result: class 0

Problem: // return assay outcome for Cc1cc(OC(C)C(=O)NCc2ccccn2)c2c(C)c(Cc3ccccc3)c(=O)oc2c1 (configuration not stated)
Result: class 0

Problem: // return assay outcome for `Cc1cc2ccccc2n1CCNC(=O)C1CCCCC1`
Result: class 1

* * *

target system: Dual specificity protein kinase CLK4 (Homo sapiens)
experiment description: qHTS Assay for Inhibitors of CDC-like Kinase 4 (ADP-FP Assay) (AID 1795); note: nearly all actives have a fitted effect of over 60% in size
measurement context: Transcreener ADP fluorescence polarization; series mostly up to 50 µM
Results filed as inconclusive are left out. Calls of active or inactive are those of the source. Calls come from the whole dose curve; as a rule, active = well fitted inhibition curve with a large enough effect; inconclusive = small, poorly fitted or top-dose-only effect; inactive = flat fitted curve, though single readings scatter.
Give one outcome, nothing more. List: active, inactive

# example entries with known answers
>  <smiles string>
Cc1nc2cnc(N3CCOCC3)nc2n(CCc2ccccc2)c1=O

>  <cat>
inactive

$$$$
>  <smiles string>
COc1cccc(-c2cncnc2NCc2ccccc2OC)c1

>  <cat>
active

$$$$
>  <smiles string>
COc1ccccc1-c1nccc(NCc2cccs2)n1

>  <cat>
inactive

$$$$

Problem: // return assay outcome for `COc1cccc(Cn2c(=O)c(CCc3ccccc3)nc3cnc(N(C)C)nc32)c1`
Result: inactive

Problem: // return assay outcome for `Clc1ccccc1-c1nc(Nc2ccncc2)c2ccccc2n1`
Result: active

Problem: // return assay outcome for `COCCn1c(=O)c(-c2ccccc2)nc2cnc(Oc3cccc(Cl)c3)nc21`
Result: inactive
